Target: D(1B) dopamine receptor (Homo sapiens, UniProt P21918)
Sequence (P21918 whole entry): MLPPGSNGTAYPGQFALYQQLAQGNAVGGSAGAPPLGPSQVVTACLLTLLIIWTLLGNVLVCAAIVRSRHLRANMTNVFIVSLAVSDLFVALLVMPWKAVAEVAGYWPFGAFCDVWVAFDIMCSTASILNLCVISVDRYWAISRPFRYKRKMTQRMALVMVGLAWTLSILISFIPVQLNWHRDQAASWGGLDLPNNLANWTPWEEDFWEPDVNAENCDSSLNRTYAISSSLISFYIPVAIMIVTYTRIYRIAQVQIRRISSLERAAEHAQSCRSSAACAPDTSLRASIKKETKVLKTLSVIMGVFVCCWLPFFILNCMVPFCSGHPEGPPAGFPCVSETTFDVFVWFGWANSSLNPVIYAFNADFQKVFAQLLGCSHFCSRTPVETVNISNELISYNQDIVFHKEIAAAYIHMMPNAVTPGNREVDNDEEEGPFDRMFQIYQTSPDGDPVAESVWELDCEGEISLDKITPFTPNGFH
Structures can show the parent of a compound that is named as a salt.
The following molecules are shown together with reported Ki values.
Endpoint: Ki (µM)

Molecule	Endpoint	Bound operator	Quantitative result
CN1CCC(C(=O)c2cccc(NC(=O)c3c(F)cc(F)cc3F)n2)CC1	Ki	=	0.253
CN1C[C@H](C(=O)N[C@]2(C)O[C@@]3(O)[C@@H]4CCCN4C(=O)[C@H](Cc4ccccc4)N3C2=O)C[C@@H]2c3cccc4[nH]cc(c34)C[C@H]21 [DIHYDROERGOTAMINE MESYLATE]	Ki	=	2.95
CC1CCN(CC[C@H]2CCCN2S(=O)(=O)c2cccc(O)c2)CC1	Ki	>	10
CN1C2CCC1CC(OC(c1ccc(F)cc1)c1ccc(F)cc1)C2 (stereo not given)	Ki	=	0.393
Cc1nc(-c2ccc(-c3ccc(C(=O)N4CCc5cc6c(cc54)C4(CCN(C)CC4)CO6)cc3)c(C)c2)no1	Ki	=	1.08
CN1CCC(=C2c3ccccc3CC(=O)c3sccc32)CC1 [KETOTIFEN FUMARATE]	Ki	=	2.66
NC[C@@H]1O[C@H](C23CC4CC(CC(C4)C2)C3)Cc2c1ccc(O)c2O	Ki	=	0.00302
CCCCCNC(=N)N/N=C/c1c[nH]c2ccc(OC)cc12 [TEGASEROD MALEATE]	Ki	=	4.12
Cc1nc2sccn2c(=O)c1CCN1CCC(=C(c2ccc(F)cc2)c2ccc(F)cc2)CC1	Ki	=	0.493
OC[C@H]1O[C@@H](n2cnc3c(NC4CCCC4)ncnc32)[C@H](O)[C@@H]1O	Ki	>	10

====

The following compounds have recorded log10 of Ki on Histamine H2 receptor (Homo sapiens).
Sequence (P25021 whole entry): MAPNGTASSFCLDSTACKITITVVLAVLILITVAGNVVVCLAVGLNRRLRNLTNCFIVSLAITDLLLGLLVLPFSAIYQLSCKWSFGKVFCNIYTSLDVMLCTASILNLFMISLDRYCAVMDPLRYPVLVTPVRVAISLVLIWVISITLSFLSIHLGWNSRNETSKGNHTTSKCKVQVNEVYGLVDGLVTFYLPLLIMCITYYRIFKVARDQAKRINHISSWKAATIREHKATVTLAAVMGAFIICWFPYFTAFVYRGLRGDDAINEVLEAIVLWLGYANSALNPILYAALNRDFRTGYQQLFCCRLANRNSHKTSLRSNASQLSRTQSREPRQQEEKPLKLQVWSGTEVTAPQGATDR
Where a name gives a salt, the structure may show the parent alone.
Endpoint: log10 of Ki (log10 of the value in µM)

>>> print(df.to_string())
                                   compound     endpoint  quantitative_result
0  Cc1c(P(=S)(c2ccccc2)c2ccccc2)n2ccccc2[n+]1C/C=C/c1ccccc1  log10 of Ki                 0.47
1  CN1C2CCC1CC(OC(c1ccc(F)cc1)c1ccc(F)cc1)C2 (stereo unspecified)  log10 of Ki                -0.23
2  C[C@@H](NCCCc1cccc(C(F)(F)F)c1)c1cccc2ccccc12 [CINACALCET HYDROCHLORIDE]  log10 of Ki                 0.42
3  CCOC(=O)c1c(C)[nH]c2ccc3c(c12)CN1CCc2cc(OC)ccc2C1O3 (stereo unspecified)  log10 of Ki                 0.45
4  COc1cccc([C@@H](C)NCCCc2ccccc2Cl)c1 [TECALCET HYDROCHLORIDE]  log10 of Ki                 0.15
5  Cc1ccc2c(c1)c1c(n2CCc2ccc(C)nc2)CCN(C)C1 [LATREPIRDINE]  log10 of Ki                -0.67

====

Catalogue of Ki values
Target: Delta-type opioid receptor (Homo sapiens, UniProt P41143)
Sequence (P41143 whole entry): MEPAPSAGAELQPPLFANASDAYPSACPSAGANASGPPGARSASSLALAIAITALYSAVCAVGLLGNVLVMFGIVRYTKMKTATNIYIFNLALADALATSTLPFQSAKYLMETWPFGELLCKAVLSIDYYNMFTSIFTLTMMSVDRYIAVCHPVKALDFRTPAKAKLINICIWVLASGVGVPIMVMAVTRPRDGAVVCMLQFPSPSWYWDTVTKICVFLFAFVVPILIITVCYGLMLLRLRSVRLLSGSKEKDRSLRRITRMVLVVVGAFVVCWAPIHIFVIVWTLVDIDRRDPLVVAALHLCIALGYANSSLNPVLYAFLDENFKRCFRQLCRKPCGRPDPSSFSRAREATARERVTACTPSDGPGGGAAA
Assay: PDSP Secondary Binding target: OPRD1 - Compounds are tested at 10 uM concentration, plate are incubated at room temperature in the dark for 90 minutes. Reaction are stopped by vacuum filtration onto 0.3% polyethyleneimine soaked filter mats using Filtermate harvester. Scintillation cocktail is then melted onto microwave-dried filters on a hot plate and the radio activity is counted in Microbia counter.
Endpoint: Ki (nM)

In [3]: df
Out[3]:
                                   molecule  bound_operator  quantitative_result
0  CN(C(=O)Cc1ccc(Cl)c(Cl)c1)C(CN1CCCC1)c1cccc(OCC(=O)O)c1 (stereo unspecified)               =                  411
1  C=CCN1C[C@H](C)N([C@H](c2ccc(C(=O)N(CC)CC)cc2)c2cccc(O)c2)C[C@H]1C               =                 3.85
2  N#Cc1c(N)nc(SCc2csc(-c3ccc(Cl)cc3)n2)c(C#N)c1-c1ccc(OCCO)cc1               >                10000
3  COC(=O)C1=C(C)NC(C)=C(C(=O)OCCCN2CCC(c3ccccc3)(c3ccccc3)CC2)[C@H]1c1cccc([N+](=O)[O-])c1               =                  399
4  Cc1c(C2=CCN(C(=O)N(C)C(C)C)CC2)nnn1-c1cccnc1F               >                10000
5  Nc1nc2c(c(N3CCNCC3)n1)CCC1=C2[C@@H]2CCCC[C@@H]2O1               >                10000
